- experiment notes: Solubility of the dye in cyclopentanone (concentration of cyclopentanone-saturated solution by HPLC)
- Type: physicochemical
- measurement setup: cyclopentanone-saturated solution, stirred at 80° C. 5 min, left 1 hour at room temperature, filtered; HPLC 254 nm
measured endpoint: Solubility of the dye in cyclopentanone (mass %)
Your answer should be a plain number; it is taken to be in mass %.

compound	Solubility of the dye in cyclopentanone / mass %
CCN(CC)c1ccc(/N=N/c2ccc(/N=N/c3cc(C)ns3)cc2)cc1	1.8

Given item CCN(CC)c1ccc(/N=N/c2ccc(/N=N/c3sc(C)cc3C#N)cc2)cc1 , the value recorded as its Solubility of the dye in cyclopentanone is 2.7

Given item CCCCSc1nnc(/N=N/c2ccc(/N=N/c3ccc(N(CC)CC)cc3)cc2)s1 , the value recorded as its Solubility of the dye in cyclopentanone is 2.2

Given item CCN(CC)c1ccc(/N=N/c2nc3sc(/N=N/c4ccc(OCCC(C)CC(C)(C)C)cc4)cc3s2)cc1 (stereo not shown) , the value recorded as its Solubility of the dye in cyclopentanone is 0.3

These data points were gathered from patent US12049583B2.
